The origin of these recorded values is patent US20050165025A1.

# TEST TARGET: human 5HT1A-serotonergic receptor (Homo sapiens, UniProt P08908)
# Construct: expressed in transfected cells; host or cells: HeLa (human), stably transfected; cell membranes
# Sequence (P08908 whole entry): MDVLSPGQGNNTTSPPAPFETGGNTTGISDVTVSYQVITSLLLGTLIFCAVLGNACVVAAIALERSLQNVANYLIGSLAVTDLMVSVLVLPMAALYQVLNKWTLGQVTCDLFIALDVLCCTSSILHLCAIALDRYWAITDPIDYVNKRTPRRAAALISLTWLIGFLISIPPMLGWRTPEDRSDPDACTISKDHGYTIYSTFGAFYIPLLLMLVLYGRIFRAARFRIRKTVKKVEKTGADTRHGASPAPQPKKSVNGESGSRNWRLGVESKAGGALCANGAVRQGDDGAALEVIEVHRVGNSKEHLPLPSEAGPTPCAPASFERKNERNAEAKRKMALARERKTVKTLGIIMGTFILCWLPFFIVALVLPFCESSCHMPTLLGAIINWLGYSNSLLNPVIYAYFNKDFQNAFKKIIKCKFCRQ
# ASSAY PROTOCOL: Radioligand binding to recombinant 5-HT1A receptors ([3H]8-OH-DPAT, HeLa cell membranes)
# SETTINGS: Recordati data on file; read-out: Binding affinity at 5HT1A receptors, Ki
READOUT TYPE: Ki (nM)
Write it as a number; the unit nM goes unstated.

Task item: Report value: Ki, system: human 5HT1A-serotonergic receptor (Homo sapiens, UniProt P08908), compound: `OC(CCN1CCN(c2cccc3[nH]ccc23)CC1)(c1ccccn1)c1ccccn1`
Reply: 4.75
